- Tested on: NCI-H196 complex spheroid growth, percent test/control
- Experiment notes: Anticancer human tumor NCI-H196 cell line growth inhibition [AhR];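 further: seven days of drug exposure starting three days after plating; 100% = DMSO vehicle control wells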
- Applied conditions: second compound 0.1 µM; first compound 0.00316 µM; stronger effect = lower value
Please provide measured viability, T/C for the entries that follow.
Write the number in % without appending the unit.

Tell me the measured viability, T/C of Cn1ncnc1C1c2n[nH]c(=O)c3cc(F)cc(c23)NC1c1ccc(F)cc1 (stereo not drawn) + CC(CO)NC(=O)c1cc(-c2ccc(Cl)cc2)nn(-c2cnn(C)c2)c1=O , please.
103

Give its viability, T/C value. Item: Nc1ncn(C2CC(O)C(CO)O2)c(=O)n1 (stereo not drawn) + CC(CO)NC(=O)c1cc(-c2ccc(Cl)cc2)nn(-c2cnn(C)c2)c1=O
112

Tell me the measured viability, T/C of Nc1ncn(C2CC(O)C(CO)O2)c(=O)n1 (stereo not drawn) + Cc1cncc(-c2nc(NCCc3c[nH]c4ccccc34)c3ncn(C(C)C)c3n2)c1 , please.
110

====

- Test system: NCI-H196 complex spheroid growth, percent test/control
- Experiment notes: Anticancer human tumor NCI-H196 cell line growth inhibition [AhR];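 further: seven days of drug exposure starting three days after plating; 100% = DMSO vehicle control wells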
- Applied conditions: second compound 0.316 µM; first compound 0.1 µM; stronger effect = lower value
Field: viability, T/C. Provide a value for each of the compounds that follow.
Expressed in %, but write only the number.

What does the record list as viability, T/C for COc1cccc2c1C(=O)c1c(O)c3c(c(O)c1C2=O)CC(O)(C(=O)CO)CC3OC1CC(N)C(O)C(C)O1 (stereo unspecified) + Cc1ccccc1N=Nc1ccc(NC(=O)c2ccnn2C)c(C)c1 ?
100

Entry CC[C@@]1(O)C(=O)OCc2c1cc1n(c2=O)Cc2cc3c(CN(C)C)c(O)ccc3nc2-1 + CC(CO)NC(=O)c1cc(-c2ccc(Cl)cc2)nn(-c2cnn(C)c2)c1=O has what viability, T/C?
129

Requested field: viability, T/C. Item: O=C(c1cc(Cc2n[nH]c(=O)c3ccccc23)ccc1F)N1CCN(C(=O)C2CC2)CC1 + CC(CO)NC(=O)c1cc(-c2ccc(Cl)cc2)nn(-c2cnn(C)c2)c1=O
109

Param item = NS(=O)(=O)OCC1CC(n2ccc3c(NC4CCc5ccccc54)ncnc32)CC1O (stereo unspecified) + Cc1cncc(-c2nc(NCCc3c[nH]c4ccccc34)c3ncn(C(C)C)c3n2)c1 ; retrieve measured viability, T/C.
63.3

Form field: reported viability, T/C of Cn1ncnc1C1c2n[nH]c(=O)c3cc(F)cc(c23)NC1c1ccc(F)cc1 (stereo unspecified) + CC(CO)NC(=O)c1cc(-c2ccc(Cl)cc2)nn(-c2cnn(C)c2)c1=O
105

For COc1cc(Nc2ncc3c(n2)-c2ccc(Cl)cc2C(c2c(F)cccc2OC)=NC3)ccc1C(=O)O + Cc1cncc(-c2nc(NCCc3c[nH]c4ccccc34)c3ncn(C(C)C)c3n2)c1 , what is its reported viability, T/C?
94.3

====

- Tested on: NCI-H196 complex spheroid growth, percent test/control
- Experiment notes: Anticancer human tumor NCI-H196 cell line growth inhibition [AhR];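 further: seven days of drug exposure starting three days after plating; 100% = DMSO vehicle control wells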
- Applied conditions: second compound 0.1 µM; first compound 0.1 µM; stronger effect = lower value
Readout type: viability, T/C

What measured viability, T/C is associated with COc1cc(Nc2ncc3c(n2)-c2ccc(Cl)cc2C(c2c(F)cccc2OC)=NC3)ccc1C(=O)O + Cc1ccccc1N=Nc1ccc(NC(=O)c2ccnn2C)c(C)c1 on NCI-H196 complex spheroid growth, percent test/control?
94.4%

What viability, T/C appears in the records for this compound with NCI-H196 complex spheroid growth, percent test/control? COc1cc(C2c3cc4c(cc3C(OC3OC5COC(C)OC5C(O)C3O)C3COC(=O)C23)OCO4)cc(OC)c1O (centres undefined) + Cc1ccccc1N=Nc1ccc(NC(=O)c2ccnn2C)c(C)c1
93.5%

# query: viability, T/C | item CC(C)c1c(-c2ccccc2)nc2c(C#N)c[nH]n2c1=O + CC(CO)NC(=O)c1cc(-c2ccc(Cl)cc2)nn(-c2cnn(C)c2)c1=O | system: NCI-H196 complex spheroid growth, percent test/control
107%

For NCI-H196 complex spheroid growth, percent test/control, provide viability, T/C of COc1cc(C2c3cc4c(cc3C(OC3OC5COC(C)OC5C(O)C3O)C3COC(=O)C23)OCO4)cc(OC)c1O (centres undefined) + CC(CO)NC(=O)c1cc(-c2ccc(Cl)cc2)nn(-c2cnn(C)c2)c1=O please.
116%
